Assay: Permeability from basolateral to apical side in human Caco-2 cells
Type: ADME, cell-based
Settings: read-out: permeability

COMPOUND	Papp B→A
Cn1cnc(S(=O)(=O)N(Cc2cccc(-n3cccc3)c2)C2Cc3cc(C#N)ccc3N(Cc3cncn3C)C2)c1 (stereo not given)	52.1 ×10⁻⁶ cm/s
CC(C)NCC(O)COc1cccc2ccccc12 (stereo not given) [PROPRANOLOL]	83.4 ×10⁻⁶ cm/s
Cc1noc(C)c1CN(C1Cc2cc(C#N)ccc2N(Cc2cncn2C)C1)S(=O)(=O)c1ccccn1 (stereo not given)	67.1 ×10⁻⁶ cm/s
Cn1cnc(S(=O)(=O)N(Cc2ccccn2)C2Cc3cc(C#N)ccc3N(Cc3cncn3C)C2)c1 (stereo not given)	23.9 ×10⁻⁶ cm/s
Cn1cncc1CN1CC(N(Cc2ccccn2)S(=O)(=O)c2ccccn2)Cc2cc(C#N)ccc21 (stereo not given)	73.3 ×10⁻⁶ cm/s

====

Test: Permeability from apical to basolateral side in human Caco-2 cells
Type: ADME, cell-based
Details: read-out: permeability
// Papp A→B lookup, one value per entry
PROPERTY_MEASURED: Papp A→B (×10⁻⁶ cm/s)

MOLECULE	OBSERVED_VALUE
Cn1cncc1CN1CC(N(CC2CCN(C(=O)C(C)(C)C)CC2)S(=O)(=O)c2ccccn2)Cc2cc(C#N)ccc21 (stereo not drawn)	0.5
Cn1cncc1CN1CC(N(CC2CCN(C(=O)N3CCCCC3)CC2)S(=O)(=O)c2ccccn2)Cc2cc(C#N)ccc21 (stereo not drawn)	0.6
Cc1noc(C)c1CN(C1Cc2cc(C#N)ccc2N(Cc2cncn2C)C1)S(=O)(=O)c1ccccn1 (stereo not drawn)	8
CC(C)NCC(O)COc1cccc2ccccc12 (stereo not drawn)	28.9
Cn1cncc1CN1CC(N(CC2CCN(C(=O)c3cccs3)CC2)S(=O)(=O)c2ccccn2)Cc2cc(C#N)ccc21 (stereo not drawn)	0.5
Cn1cncc1CN1CC(N(CC2CCN(C(=O)NC(C)(C)C)CC2)S(=O)(=O)c2ccccn2)Cc2cc(C#N)ccc21 (stereo not drawn)	0.6
CC(C)S(=O)(=O)N1CCC(CN(C2Cc3cc(C#N)ccc3N(Cc3cncn3C)C2)S(=O)(=O)c2ccccn2)CC1 (stereo not drawn)	0.1
Cn1cncc1CN1CC(N(CC2CCN(C(=O)Nc3ccc(Br)cc3)CC2)S(=O)(=O)c2ccccn2)Cc2cc(C#N)ccc21 (stereo not drawn)	0.6

====

Below, each of the compounds is paired with its reported Cmax value.
Experiment: Cmax in Sprague-Dawley rat at 50 mg/kg, po
Format: ADME, organism-based
Design: dose 50 mg/kg, route oral
Conditions: in vivo

COMPOUND	Cmax (µM)
Cn1cncc1CN1CC(N(CC2CCN(C(=O)OCc3ccccc3)CC2)S(=O)(=O)c2ccccn2)Cc2cc(C#N)ccc21 (stereo not drawn)	4.5
CC(C)COC(=O)N1CCC(CN(C2Cc3cc(C#N)ccc3N(Cc3cncn3C)C2)S(=O)(=O)c2ccccn2)CC1 (stereo not drawn)	8.4
Cn1cncc1CN1CC(N(CC2CCN(C(=O)OC(C)(C)C)CC2)S(=O)(=O)c2ccccn2)Cc2cc(C#N)ccc21 (stereo not drawn)	6.3
COC(=O)N1CCC(CN(C2Cc3cc(C#N)ccc3N(Cc3cncn3C)C2)S(=O)(=O)c2ccccn2)CC1 (stereo not drawn)	4.5
Cn1cnc(S(=O)(=O)N(Cc2ccc(C(F)(F)F)o2)C2Cc3cc(C#N)ccc3N(Cc3cncn3C)C2)c1 (stereo not drawn)	3.4
Cn1cncc1CN1CC(N(CCn2cccc2)S(=O)(=O)c2ccccn2)Cc2cc(C#N)ccc21 (stereo not drawn)	5.4
CC(C)OC(=O)N1CCC(CN(C2Cc3cc(C#N)ccc3N(Cc3cncn3C)C2)S(=O)(=O)c2ccccn2)CC1 (stereo not drawn)	4.5
Cn1cnc(S(=O)(=O)N(CC(=O)NC(C)(C)C)C2Cc3cc(-c4ccccc4)ccc3N(Cc3cncn3C)C2)c1 (stereo not drawn)	4.1

====

Assay: Elimination half life in BALB/c mouse at 50 mg/kg, po
Format: ADME, organism-based
Design: dose 50 mg/kg, route oral
Details: in vivo, read-out: beta t1/2

COMPOUND	half-life / min
CC(C)COC(=O)N1CCC(CN(C2Cc3cc(C#N)ccc3N(Cc3cncn3C)C2)S(=O)(=O)c2ccccn2)CC1 (stereo unspecified)	26
Cn1cnc(S(=O)(=O)N(CC(=O)NC(C)(C)C)C2Cc3cc(-c4ccccc4)ccc3N(Cc3cncn3C)C2)c1 (stereo unspecified)	88
COC(=O)N1CCC(CN(C2Cc3cc(C#N)ccc3N(Cc3cncn3C)C2)S(=O)(=O)c2ccccn2)CC1 (stereo unspecified)	18
Cn1cncc1CN1CC(N(CC2CCN(C(=O)OC(C)(C)C)CC2)S(=O)(=O)c2ccccn2)Cc2cc(C#N)ccc21 (stereo unspecified)	54
Cn1cnc(S(=O)(=O)N(Cc2ccc(C(F)(F)F)o2)C2Cc3cc(C#N)ccc3N(Cc3cncn3C)C2)c1 (stereo unspecified)	30
Cn1cncc1CN1CC(N(CCn2cccc2)S(=O)(=O)c2ccccn2)Cc2cc(C#N)ccc21 (stereo unspecified)	40

====

Test system: Mus musculus
Test: Plasma concentration in BALB/c mouse at 50 mg/kg, po
Type: ADME, organism-based
Design: dose 50 mg/kg, route oral
Details: in vivo
Binary label based on concentration with cut-off 10 µM: below gives class 1, not below gives class 0.

MOLECULE	LABEL_VALUE
Cn1cncc1CN1CC(N(Cc2ccccn2)S(=O)(=O)c2ccccn2)Cc2cc(C#N)ccc21 (centres undefined)	class 1
Cn1cnc(S(=O)(=O)N(Cc2cccc(-n3cccc3)c2)C2Cc3cc(C#N)ccc3N(Cc3cncn3C)C2)c1 (centres undefined)	class 1
Cn1cnc(S(=O)(=O)N(Cc2ccc(C(F)(F)F)o2)C2Cc3cc(C#N)ccc3N(Cc3cncn3C)C2)c1 (centres undefined)	class 1
Cn1cnc(S(=O)(=O)N(CCn2cccc2)C2Cc3cc(C#N)ccc3N(Cc3cncn3C)C2)c1 (centres undefined)	class 1
Cc1noc(C)c1CN(C1Cc2cc(C#N)ccc2N(Cc2cncn2C)C1)S(=O)(=O)c1ccccn1 (centres undefined)	class 0
Cn1cncc1CN1CC(N(CCn2cccc2)S(=O)(=O)c2ccccn2)Cc2cc(C#N)ccc21 (centres undefined)	class 0
Cn1cnc(S(=O)(=O)N(Cc2ccccn2)C2Cc3cc(C#N)ccc3N(Cc3cncn3C)C2)c1 (centres undefined)	class 1
Cn1cncc1CN1CC(N(Cc2ccc(S(C)(=O)=O)cc2)S(=O)(=O)c2ccccn2)Cc2cc(C#N)ccc21 (centres undefined)	class 1

====

Assay: Permeability from apical to basolateral side in human Caco-2 cells
Assay type: ADME, cell-based
Details: read-out: permeability

COMPOUND	Papp A→B (×10⁻⁶ cm/s)
CC(C)C(=O)N1CCC(CN(C2Cc3cc(C#N)ccc3N(Cc3cncn3C)C2)S(=O)(=O)c2ccccn2)CC1 (stereo not drawn)	0.5
Cn1cncc1CN1CC(N(CC2CCN(C(=O)CNC(=O)OC(C)(C)C)CC2)S(=O)(=O)c2ccccn2)Cc2cc(C#N)ccc21 (stereo not drawn)	0.5
Cn1cncc1CN1CC(N(Cc2cccc(-n3cccc3)c2)S(=O)(=O)c2ccccn2)Cc2cc(C#N)ccc21 (stereo not drawn)	2.3
CCS(=O)(=O)N1CCC(CN(C2Cc3cc(C#N)ccc3N(Cc3cncn3C)C2)S(=O)(=O)c2ccccn2)CC1 (stereo not drawn)	0.1
Cn1cncc1CN1CC(N(Cc2ccccn2)S(=O)(=O)c2ccccn2)Cc2cc(C#N)ccc21 (stereo not drawn)	1.6
CC(C)OC(=O)N1CCC(CN(C2Cc3cc(C#N)ccc3N(Cc3cncn3C)C2)S(=O)(=O)c2ccccn2)CC1 (stereo not drawn)	1
Cn1cnc(S(=O)(=O)N(Cc2ccc(C(F)(F)F)o2)C2Cc3cc(C#N)ccc3N(Cc3cncn3C)C2)c1 (stereo not drawn)	0.7
CCCC(=O)N1CCC(CN(C2Cc3cc(C#N)ccc3N(Cc3cncn3C)C2)S(=O)(=O)c2ccccn2)CC1 (stereo not drawn)	0.5
CN(C)C(=O)N1CCC(CN(C2Cc3cc(C#N)ccc3N(Cc3cncn3C)C2)S(=O)(=O)c2ccccn2)CC1 (stereo not drawn)	0.6
COC(=O)N1CCC(CN(C2Cc3cc(C#N)ccc3N(Cc3cncn3C)C2)S(=O)(=O)c2ccccn2)CC1 (stereo not drawn)	1.1
CC(=O)N1CCC(CN(C2Cc3cc(C#N)ccc3N(Cc3cncn3C)C2)S(=O)(=O)c2ccccn2)CC1 (stereo not drawn)	0.5
Cn1cncc1CN1CC(N(CC2CCN(C(=O)CC(F)(F)F)CC2)S(=O)(=O)c2ccccn2)Cc2cc(C#N)ccc21 (stereo not drawn)	0.5
Cn1cncc1CN1CC(N(CC2CCN(C(=O)OCc3ccccc3)CC2)S(=O)(=O)c2ccccn2)Cc2cc(C#N)ccc21 (stereo not drawn)	1

====

Assay: Metabolic stability in rat liver microsomes
Assay type: ADME, Microsome
PROPERTY_MEASURED: half-life (min)

MOLECULE	OBSERVED_VALUE
Cn1cncc1CN1CC(N(CCn2cccc2)S(=O)(=O)c2ccccn2)Cc2cc(C#N)ccc21 (configuration not stated)	10.4
Cn1cncc1CN1CC(N(CC2CCN(C(=O)OC(C)(C)C)CC2)S(=O)(=O)c2ccccn2)Cc2cc(C#N)ccc21 (configuration not stated)	10
COC(=O)N1CCC(CN(C2Cc3cc(C#N)ccc3N(Cc3cncn3C)C2)S(=O)(=O)c2ccccn2)CC1 (configuration not stated)	14
CC(C)COC(=O)N1CCC(CN(C2Cc3cc(C#N)ccc3N(Cc3cncn3C)C2)S(=O)(=O)c2ccccn2)CC1 (configuration not stated)	18
Cn1cnc(S(=O)(=O)N(CC(=O)NC(C)(C)C)C2Cc3cc(-c4ccccc4)ccc3N(Cc3cncn3C)C2)c1 (configuration not stated)	165
CCOC(=O)N1CCC(CN(C2Cc3cc(C#N)ccc3N(Cc3cncn3C)C2)S(=O)(=O)c2ccccn2)CC1 (configuration not stated)	12
Cn1cnc(S(=O)(=O)N(Cc2ccc(C(F)(F)F)o2)C2Cc3cc(C#N)ccc3N(Cc3cncn3C)C2)c1 (configuration not stated)	16
